inhibition values, listed per item
target: UniProt P13945; assay: Inhibition of adrenergic beta-3 receptor (unknown origin) at 10 uM relative to control
Sequence (P13945 whole entry, looked up): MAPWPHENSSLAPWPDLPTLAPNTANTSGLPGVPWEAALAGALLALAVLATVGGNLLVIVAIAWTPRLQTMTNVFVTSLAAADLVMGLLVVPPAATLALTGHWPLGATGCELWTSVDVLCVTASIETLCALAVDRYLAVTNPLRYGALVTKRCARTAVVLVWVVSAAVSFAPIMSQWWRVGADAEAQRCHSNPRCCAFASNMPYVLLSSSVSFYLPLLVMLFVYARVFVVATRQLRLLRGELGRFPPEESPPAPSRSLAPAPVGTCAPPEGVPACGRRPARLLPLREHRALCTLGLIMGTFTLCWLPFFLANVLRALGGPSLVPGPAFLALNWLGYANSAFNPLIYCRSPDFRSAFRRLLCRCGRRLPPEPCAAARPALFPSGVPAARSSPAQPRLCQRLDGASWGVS
recordedEndpoint: inhibition (%)

1) Cl.NCc1ccc(OCc2ccc(OC(F)(F)F)cc2)cc1	17.5
2) Cl.NCc1ccc(OCc2cccc(F)c2)cc1	9.3
3) Cl.NCc1ccc(OCc2cccc(OC(F)(F)F)c2)cc1	13.6
4) Cl.NCc1ccc(OCc2ccccc2OC(F)(F)F)cc1	26.8
5) Cl.NCc1ccc(OCc2ccc(F)cc2)cc1	5
6) Cl.NCc1ccc(OCc2ccccc2F)cc1	10.2
7) Cl.NCc1ccc(OCc2ccc(Cl)cc2)cc1	-3.4
8) Cl.NCc1ccc(OCc2cccc(Cl)c2)cc1	16.9
9) Cl.NCc1ccc(OCc2ccccc2)cc1	11.3
